# key: entry, value: inhibition at 30 µM
target: human wild-type (WT)-pendrin (Homo sapiens); construct: expressed in transfected cells; experiment: Pendrin Cl−/I− exchange inhibitory activity, YFP fluorescence in CHO-K1 cells; format: cell-based; conditions: CHO-K1; compound concentration 30 μM
Sequence (O43511 whole entry): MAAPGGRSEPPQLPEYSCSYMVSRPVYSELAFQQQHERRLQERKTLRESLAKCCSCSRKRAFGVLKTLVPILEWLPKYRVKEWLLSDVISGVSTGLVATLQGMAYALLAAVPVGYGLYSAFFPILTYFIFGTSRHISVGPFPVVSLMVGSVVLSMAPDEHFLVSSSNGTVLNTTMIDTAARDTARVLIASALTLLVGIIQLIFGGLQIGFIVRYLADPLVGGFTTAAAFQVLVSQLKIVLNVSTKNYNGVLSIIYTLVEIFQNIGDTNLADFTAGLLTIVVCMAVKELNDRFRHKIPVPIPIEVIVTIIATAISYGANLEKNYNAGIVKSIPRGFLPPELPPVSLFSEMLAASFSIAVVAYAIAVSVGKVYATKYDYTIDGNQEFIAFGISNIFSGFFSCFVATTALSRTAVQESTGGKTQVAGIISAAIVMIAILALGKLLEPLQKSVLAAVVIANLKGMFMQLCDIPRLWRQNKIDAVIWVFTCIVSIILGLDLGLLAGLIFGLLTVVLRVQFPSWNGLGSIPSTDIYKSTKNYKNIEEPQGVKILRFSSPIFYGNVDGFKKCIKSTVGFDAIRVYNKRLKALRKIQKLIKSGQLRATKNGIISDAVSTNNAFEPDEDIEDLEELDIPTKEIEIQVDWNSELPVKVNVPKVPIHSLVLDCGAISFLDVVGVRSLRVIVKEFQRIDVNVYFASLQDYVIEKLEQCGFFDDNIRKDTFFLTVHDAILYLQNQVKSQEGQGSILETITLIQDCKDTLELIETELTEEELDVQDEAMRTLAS
measurement kind: inhibition at 30 µM (%)

>>> numeric_readout("Cc1cccc(N2CCN(C(=O)Cc3c(C(=O)O)[nH]c4ccc(Cl)cc34)CC2)c1C")
95.5
>>> numeric_readout("O=C(O)c1[nH]c2ccc(Cl)cc2c1CC(=O)N1CCN(c2ccc(C(F)(F)F)cc2)CC1")
92.7
>>> numeric_readout("Cc1ccc2[nH]c(C(=O)O)c(CC(=O)N3CCN(c4ccc(C(C)(C)C)cc4)CC3)c2c1")
76.2
>>> numeric_readout("Cc1cc(C)c2[nH]c(C(=O)O)c(CC(=O)N3CCN(c4c(C)cccc4Cl)CC3)c2c1")
79.3
